Molecular target: FAPP2-HIS-SUMO-C-212 (Homo sapiens, UniProt Q96JA3)
Construct: the recombinant FAPP2 protein is FAPP2-GLTP-C212 or FAPP2 Full-Length (FL)
Sequence (Q96JA3 310-519 limits assumed): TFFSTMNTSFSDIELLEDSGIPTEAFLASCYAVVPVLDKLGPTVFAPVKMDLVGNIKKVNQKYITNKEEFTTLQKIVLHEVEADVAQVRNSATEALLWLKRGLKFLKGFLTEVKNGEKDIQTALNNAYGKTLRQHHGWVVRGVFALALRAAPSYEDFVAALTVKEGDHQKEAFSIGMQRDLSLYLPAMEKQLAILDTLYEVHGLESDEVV
Test: FRET GlcCer transfer assay with FAPP2-C212 (384-well)
Type: biochemical
Settings: 50 uM compound; FAPP2-C212 at 0.5 uM; measured for 30 mins
Measured inhibition of FAPP2 transfer activity of individual entries
Only the number, expressed in %, is required.

compound="CCSc1ccc2c(c1)N(CCCN1CCN(C)CC1)c1ccccc1S2 [Thiethylperazine]" result_units=% test_result=60
compound="CCc1oc2ccccc2c1C(=O)c1cc(Br)c(O)c(Br)c1 [Benzbromarone]" result_units=% test_result=80
compound="O=C(Nc1cccc2c(=O)cc(-c3nn[nH]n3)oc12)c1ccc(OCCCCc2ccccc2)cc1 [Pranlukast]" result_units=% test_result=90

Please examine the following record next.
For COc1cc(C(=O)NS(=O)(=O)c2ccccc2C)ccc1Cc1cn(C)c2ccc(NC(=O)OC3CCCC3)cc12 [Zafirlukast] on FAPP2-HIS-SUMO-C-212 (Homo sapiens, UniProt Q96JA3), measured inhibition of FAPP2 transfer activity was 90
